Where do these numbers come from? They come from patent US10285989B2.

Reported Ki is given for each of the following compounds.
# TESTED_ON: human PDE2A1 (Homo sapiens (Human), UniProt O00408)
# Sequence (O00408 other isoform, or with tags, fused parts or gaps): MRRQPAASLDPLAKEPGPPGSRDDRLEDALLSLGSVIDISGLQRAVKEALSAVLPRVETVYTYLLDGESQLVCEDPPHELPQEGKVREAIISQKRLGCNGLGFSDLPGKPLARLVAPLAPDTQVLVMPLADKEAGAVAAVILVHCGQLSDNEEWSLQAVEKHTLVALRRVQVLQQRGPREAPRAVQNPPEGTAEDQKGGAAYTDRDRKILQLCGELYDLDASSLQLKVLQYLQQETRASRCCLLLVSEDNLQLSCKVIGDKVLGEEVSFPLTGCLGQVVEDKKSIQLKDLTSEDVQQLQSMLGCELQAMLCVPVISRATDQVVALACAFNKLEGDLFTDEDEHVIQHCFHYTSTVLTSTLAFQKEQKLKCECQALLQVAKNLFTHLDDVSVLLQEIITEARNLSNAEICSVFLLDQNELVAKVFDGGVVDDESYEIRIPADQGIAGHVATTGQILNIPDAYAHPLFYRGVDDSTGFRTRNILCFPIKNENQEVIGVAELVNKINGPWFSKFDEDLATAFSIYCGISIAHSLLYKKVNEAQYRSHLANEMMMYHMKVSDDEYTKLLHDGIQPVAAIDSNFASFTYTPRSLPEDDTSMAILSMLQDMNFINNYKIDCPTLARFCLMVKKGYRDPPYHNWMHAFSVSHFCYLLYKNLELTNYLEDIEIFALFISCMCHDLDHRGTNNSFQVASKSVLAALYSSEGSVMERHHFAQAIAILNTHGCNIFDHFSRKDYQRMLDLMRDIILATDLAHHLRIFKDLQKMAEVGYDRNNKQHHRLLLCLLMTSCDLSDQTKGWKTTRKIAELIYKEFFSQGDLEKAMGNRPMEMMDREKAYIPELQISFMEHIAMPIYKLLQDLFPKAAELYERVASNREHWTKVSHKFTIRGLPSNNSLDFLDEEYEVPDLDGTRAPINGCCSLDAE
# ASSAY_NOTES: PDE2 IMAP FP inhibition assay, human PDE2A1 (selectivity panel format)
# Format: biochemical
# CONDITION_NOTES: Lab B; read-out: Human PDE2 Ki (nM) - Lab B
OBSERVED_PROPERTY: Ki (nM)

- COMPOUND: "CN(C)c1nc(C(=O)N[C@@H](c2ccc(OC(F)(F)F)c(Cl)c2)C2CC2)cc(=O)[nH]1 [Example 85]"
  OBSERVED_PROPERTY: "Ki"
  MEASURED_NUMBER: 3.6
- COMPOUND: "CN(C)c1nc(C(=O)N[C@@H](c2ccc(C(F)(F)F)c(F)c2)C2(C)CC2)cc(=O)[nH]1 [Example 42]"
  OBSERVED_PROPERTY: "Ki"
  MEASURED_NUMBER: 0.44
- COMPOUND: "CN(C)c1nc(C(=O)NC(c2ccc(C(F)(F)F)cc2)C(F)(F)F)cc(=O)[nH]1 (stereo not drawn) [Example 207]"
  OBSERVED_PROPERTY: "Ki"
  MEASURED_NUMBER: 2.9
- COMPOUND: "CN(C)c1nc(C(=O)N[C@@H](c2ccc(SC(F)(F)F)cc2)C2CC2)cc(=O)[nH]1 [Example 111]"
  OBSERVED_PROPERTY: "Ki"
  MEASURED_NUMBER: 0.9
- COMPOUND: "CN(C)c1nc(C(=O)N[C@@H](c2ccc(OC(F)F)cc2)C2CC2)cc(=O)[nH]1 [Example 32]"
  OBSERVED_PROPERTY: "Ki"
  MEASURED_NUMBER: 5.3
- COMPOUND: "CN(C)c1nc(C(=O)N[C@@H](c2ccc(OC(F)(F)F)c(F)c2)C2CC2)cc(=O)[nH]1 [Example 110]"
  OBSERVED_PROPERTY: "Ki"
  MEASURED_NUMBER: 1.3
- COMPOUND: "O=C(N[C@@H](c1ccc(S(F)(F)(F)(F)F)cc1)C1CC1)c1cc(=O)[nH]c(N2CCCC2)n1 [Example 99]"
  OBSERVED_PROPERTY: "Ki"
  MEASURED_NUMBER: 1.1
- COMPOUND: "CC(C)[C@@H](NC(=O)c1cc(=O)[nH]c(N(C)C)n1)c1ccc(C(F)(F)F)cc1 [Example 47]"
  OBSERVED_PROPERTY: "Ki"
  MEASURED_NUMBER: 0.44
- COMPOUND: "CN(C)c1nc(C(=O)NC(C)(C)c2ccc(S(F)(F)(F)(F)F)cc2)cc(=O)[nH]1 [Example 118]"
  OBSERVED_PROPERTY: "Ki"
  MEASURED_NUMBER: 140
- COMPOUND: "CN(C)c1nc(C(=O)NC(c2ccc(S(F)(F)(F)(F)F)cc2F)C(C)(C)C)cc(=O)[nH]1 (single isomer, unassigned) [Example 127]"
  OBSERVED_PROPERTY: "Ki"
  MEASURED_NUMBER: 527
- COMPOUND: "CC(C)[C@@H](NC(=O)c1cc(=O)[nH]c(N(C)C)n1)c1ccc(C(F)(F)F)c(F)c1 [Example 112]"
  OBSERVED_PROPERTY: "Ki"
  MEASURED_NUMBER: 0.55
- COMPOUND: "C[C@@H](NC(=O)c1cc(=O)[nH]c(N(C)C)n1)c1cc(F)c(C(F)(F)F)cc1F [Example 36]"
  OBSERVED_PROPERTY: "Ki"
  MEASURED_NUMBER: 7.7
- COMPOUND: "CN(C)c1nc(C(=O)NC(c2ccncc2)c2ccc(C(F)(F)F)cc2)cc(=O)[nH]1 (stereo not drawn) [Example 196]"
  OBSERVED_PROPERTY: "Ki"
  MEASURED_NUMBER: 91
- COMPOUND: "CN(C)c1nc(C(=O)N[C@@H](c2ccc(C(F)(F)F)cc2)C2CC2)cc(=O)[nH]1 [Example 108]"
  OBSERVED_PROPERTY: "Ki"
  MEASURED_NUMBER: 1.8
- COMPOUND: "CN(C)c1nc(C(=O)NC(C)(C)c2ccc(OC(F)(F)F)cc2F)cc(=O)[nH]1 [Example 81]"
  OBSERVED_PROPERTY: "Ki"
  MEASURED_NUMBER: 21
- COMPOUND: "CN(C)c1nc(C(=O)N[C@@H](c2ccc(C(F)F)c(F)c2)C(C)(C)C)cc(=O)[nH]1 [Example 62]"
  OBSERVED_PROPERTY: "Ki"
  MEASURED_NUMBER: 0.52
- COMPOUND: "C[C@@H](NC(=O)c1cc(=O)[nH]c(N(C)C)n1)c1ccc(C2CC2)c(F)c1 [Example 40]"
  OBSERVED_PROPERTY: "Ki"
  MEASURED_NUMBER: 1.02
- COMPOUND: "CC(C)[C@@H](NC(=O)c1cc(=O)[nH]c(N(C)C)n1)c1ccc(C(F)F)cc1 [Example 63]"
  OBSERVED_PROPERTY: "Ki"
  MEASURED_NUMBER: 1.9
- COMPOUND: "CN(C)c1nc(C(=O)N[C@@H](c2ccc(OC(F)(F)F)cc2Cl)C(C)(C)O)cc(=O)[nH]1 [Example 210]"
  OBSERVED_PROPERTY: "Ki"
  MEASURED_NUMBER: 0.54
- COMPOUND: "C[C@@H](NC(=O)c1cc(=O)[nH]c(N(C)C)n1)c1ccc(OC(F)(F)F)c(Cl)c1 [Example 3]"
  OBSERVED_PROPERTY: "Ki"
  MEASURED_NUMBER: 1.6
- COMPOUND: "Cc1cc(C(F)(F)F)ccc1C(C)(C)NC(=O)c1cc(=O)[nH]c(N(C)C)n1 [Example 78]"
  OBSERVED_PROPERTY: "Ki"
  MEASURED_NUMBER: 2.2
- COMPOUND: "CC(=O)C(NC(=O)c1cc(=O)[nH]c(N(C)C)n1)c1ccc(C(F)(F)F)cc1 (stereo not drawn) [Example 197]"
  OBSERVED_PROPERTY: "Ki"
  MEASURED_NUMBER: 3.6
- COMPOUND: "CO[C@@H]1CCN(c2nc(C(=O)N[C@@H](c3ccc(C(F)(F)F)cc3)C(C)(C)C)cc(=O)[nH]2)C1 [Example 171]"
  OBSERVED_PROPERTY: "Ki"
  MEASURED_NUMBER: 1.4
- COMPOUND: "CN(C)c1nc(C(=O)N[C@@H](c2ccc(C(C)(F)F)cc2)C(C)(C)C)cc(=O)[nH]1 [Example 76]"
  OBSERVED_PROPERTY: "Ki"
  MEASURED_NUMBER: 0.12
- COMPOUND: "CN(C)c1nc(C(=O)N[C@@H](c2ccc(OC(F)(F)F)c(F)c2)C(C)(C)C)cc(=O)[nH]1 [Example 101]"
  OBSERVED_PROPERTY: "Ki"
  MEASURED_NUMBER: 0.12
- COMPOUND: "CN(C)c1nc(C(=O)N[C@@H](c2ccc(SC(F)(F)F)cc2)C(C)(C)C)cc(=O)[nH]1 [Example 103]"
  OBSERVED_PROPERTY: "Ki"
  MEASURED_NUMBER: 0.12
- COMPOUND: "CC(C)[C@@H](NC(=O)c1cc(=O)[nH]c(N2CC[C@@H](F)C2)n1)c1ccc(OC(F)(F)F)c(F)c1 [Example 163]"
  OBSERVED_PROPERTY: "Ki"
  MEASURED_NUMBER: 4.2
- COMPOUND: "CC[C@@H](NC(=O)c1cc(=O)[nH]c(N(C)C)n1)c1ccc(SC(F)(F)F)cc1 [Example 88]"
  OBSERVED_PROPERTY: "Ki"
  MEASURED_NUMBER: 0.69
- COMPOUND: "CN(C)c1nc(C(=O)NC(c2ccc(S(F)(F)(F)(F)F)cc2F)C(C)(C)C)cc(=O)[nH]1 (single isomer, unassigned) [Example 128]"
  OBSERVED_PROPERTY: "Ki"
  MEASURED_NUMBER: 0.15
- COMPOUND: "O=C(N[C@@H](c1ccc(C(F)(F)F)cc1)C1CC1)c1cc(=O)[nH]c(N2CC[C@H](F)C2)n1 [Example 167]"
  OBSERVED_PROPERTY: "Ki"
  MEASURED_NUMBER: 2.3
